target: α5β3γ2 GABAA receptors (Ltk cell membranes) (Homo sapiens, UniProt P18507+P31644); construct: membranes; experiment: Binding activity of test compounds on GABAAR: inhibition of [3H]Ro15-1788 binding; settings: GABA α5 Binding Ki Values, inhibition of [3H]Ro15-1788 binding; reported as ranges
Sequence (P31644 32-462): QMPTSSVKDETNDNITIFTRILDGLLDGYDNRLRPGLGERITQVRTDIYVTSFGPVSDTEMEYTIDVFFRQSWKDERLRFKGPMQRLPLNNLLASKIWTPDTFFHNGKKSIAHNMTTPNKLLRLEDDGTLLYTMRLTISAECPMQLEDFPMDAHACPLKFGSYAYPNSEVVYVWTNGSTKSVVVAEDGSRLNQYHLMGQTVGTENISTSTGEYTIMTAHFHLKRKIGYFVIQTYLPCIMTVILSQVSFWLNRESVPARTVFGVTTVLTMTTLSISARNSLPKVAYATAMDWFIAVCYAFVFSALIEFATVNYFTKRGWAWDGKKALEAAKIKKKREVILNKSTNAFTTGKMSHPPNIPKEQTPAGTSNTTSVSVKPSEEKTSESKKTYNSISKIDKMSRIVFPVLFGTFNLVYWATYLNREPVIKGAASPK
Sequence (P28472 26-473 partner): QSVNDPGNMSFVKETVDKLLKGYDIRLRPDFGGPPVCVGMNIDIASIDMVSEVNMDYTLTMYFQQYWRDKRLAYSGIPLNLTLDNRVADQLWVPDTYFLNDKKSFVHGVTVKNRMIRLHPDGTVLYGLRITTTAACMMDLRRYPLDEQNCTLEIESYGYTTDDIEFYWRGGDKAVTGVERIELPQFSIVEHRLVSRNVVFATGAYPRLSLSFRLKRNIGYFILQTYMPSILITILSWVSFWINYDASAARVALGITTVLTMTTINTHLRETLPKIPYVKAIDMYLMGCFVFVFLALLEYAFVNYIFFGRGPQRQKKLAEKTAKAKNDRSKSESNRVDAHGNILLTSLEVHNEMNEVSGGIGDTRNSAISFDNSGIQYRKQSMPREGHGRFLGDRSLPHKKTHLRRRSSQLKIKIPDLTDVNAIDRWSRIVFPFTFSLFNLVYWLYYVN
Sequence (P18507 40-475): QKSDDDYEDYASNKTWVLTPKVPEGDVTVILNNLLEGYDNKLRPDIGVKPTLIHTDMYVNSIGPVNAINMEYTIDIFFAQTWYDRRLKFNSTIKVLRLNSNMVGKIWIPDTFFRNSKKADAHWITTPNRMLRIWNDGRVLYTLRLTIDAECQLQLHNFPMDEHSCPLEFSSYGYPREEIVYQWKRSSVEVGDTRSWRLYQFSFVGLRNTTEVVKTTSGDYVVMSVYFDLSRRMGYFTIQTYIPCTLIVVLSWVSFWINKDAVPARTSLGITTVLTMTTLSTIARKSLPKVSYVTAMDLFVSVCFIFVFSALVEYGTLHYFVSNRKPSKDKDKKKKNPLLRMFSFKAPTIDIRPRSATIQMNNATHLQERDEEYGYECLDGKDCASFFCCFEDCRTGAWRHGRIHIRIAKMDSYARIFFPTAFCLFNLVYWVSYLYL
MEASURED_ATTRIBUTE: Ki

1) COCc1nnc2n1Cc1c(-c3nc(C)no3)ncn1-c1ccc(OC)cc1-2
< 100 nM
2) CCOC(=O)c1ncn2c1Cc1c(Cc3ccccc3)nnn1-c1cc(OC)ccc1-2
< 100 nM
3) CC#Cc1ncn2c1Cc1cnnn1-c1cc(OC)ccc1-2
< 100 nM
4) COc1ccc2c(c1)-n1nnc(COc3ccccc3)c1Cc1c(-c3noc(C)n3)ncn1-2
< 100 nM
5) COc1ccc2c(c1)-n1nncc1Cc1c(C3=NCCO3)ncn1-2
< 100 nM
6) COCc1nnc2n1Cc1c(C3=NC[C@H](C)O3)ncn1-c1ccc(Cl)cc1-2
< 100 nM
7) COc1ccc2c(c1)-n1nnc(COc3cccc(Br)c3)c1Cc1c(C#N)ncn1-2
< 100 nM
8) COCc1nnc2n1Cc1c(-c3nc(C(C)C)co3)ncn1-c1ccc(Cl)cc1-2
100 to 1000 nM
9) Cc1nnn2c1Cc1c(-c3noc(C(C)C)n3)ncn1-c1ccc(F)cc1-2
< 100 nM
10) Clc1ccc2c(c1)-c1nnc(COc3ccccc3)n1Cc1c(-c3ncco3)ncn1-2
< 100 nM
11) Cc1cccc(C)c1OCc1nnc2n1Cc1c(-c3noc(C(C)C)n3)ncn1-c1ccc(F)cc1-2
< 100 nM
12) COCc1nnc2n1Cc1c(Br)ncn1-c1ccc(Cl)cc1-2
< 100 nM
13) COc1ccc2c(c1)-n1nnc(-c3ccccc3)c1Cc1c(-c3nc(C(C)C)no3)ncn1-2
> 1000 nM
14) Cc1nc(-c2ncn3c2Cc2c(C)nnn2-c2ccccc2-3)no1
< 100 nM
15) CCc1nc(-c2ncn3c2Cn2c(COc4ccccc4)nnc2-c2cc(F)ccc2-3)no1
< 100 nM
16) COc1ccc2c(c1)-c1nnc(COCc3ccccc3)n1Cc1c(C#N)ncn1-2
< 100 nM
17) Fc1ccccc1C#Cc1ncn2c1Cc1cnnn1-c1cc(Cl)ccc1-2
< 100 nM
18) COCc1nnc2n1Cc1c(Br)ncn1-c1ccc(OC)cc1-2
< 100 nM
19) COc1ccc2c(c1)-n1nncc1Cc1c(C3=N[C@@H](C)CO3)ncn1-2
100 to 1000 nM
20) COCc1nnc2n1Cc1c(-c3ncco3)ncn1-c1ccc(OC(F)(F)F)cc1-2
< 100 nM
21) COCc1nnc2n1Cc1c(-c3nc(C(C)C)no3)ncn1-c1ccc(OC)cc1-2
< 100 nM
22) CC(C)C#Cc1ccc2c(c1)-n1nncc1Cc1c(C#CC(C)C)ncn1-2
100 to 1000 nM
23) COCc1nnc2n1Cc1c(C3=NCCCO3)ncn1-c1ccc(Cl)cc1-2
100 to 1000 nM
24) Cc1nnn2c1Cc1c(-c3noc(C(C)(C)C)n3)ncn1-c1ccc(F)cc1-2
< 100 nM
25) COCc1nnc2n1Cc1c(C3=N[C@H](C)CO3)ncn1-c1ccc(Cl)cc1-2
< 100 nM
26) C#Cc1ncn2c1Cc1c(C(=O)c3ccc(F)cc3)nnn1-c1cc(OC)ccc1-2
< 100 nM
27) Cc1ncn2c1Cc1c(C)nnn1-c1ccccc1-2
> 1000 nM
28) Cc1nnn2c1Cc1c(C3=N[C@@H](c4ccc(F)cc4)CO3)ncn1-c1ccc(Cl)cc1-2
100 to 1000 nM
29) CCOC(=O)c1ncn2c1Cc1c(Cc3cccc(C#N)c3)nnn1-c1cc(OC)ccc1-2
< 100 nM
30) COc1ccc2c(c1)-n1nncc1Cc1c(C3=N[C@@H](c4cccc(C(F)(F)F)c4)CO3)ncn1-2
100 to 1000 nM
31) COc1ccc2c(c1)-n1nncc1Cc1c(-c3nc(C)no3)ncn1-2
< 100 nM
32) CCOCc1nnc2n1Cc1c(-c3ncco3)ncn1-c1ccc(Cl)cc1-2
< 100 nM
33) C#Cc1nc(C)n2c1Cn1c(COC(C)C)nnc1-c1cc(Cl)ccc1-2
100 to 1000 nM
34) CC(C)OCc1nnc2n1Cc1c(-c3ncco3)ncn1-c1ccc(Cl)cc1-2
< 100 nM
35) COCc1nnc2n1Cc1c(C3=N[C@@H](c4ccccc4F)CO3)ncn1-c1ccc(Cl)cc1-2
< 100 nM
36) COc1ccc2c(c1)-c1nnc(COc3ccccc3)n1Cc1c(-c3noc(C(C)C)n3)ncn1-2
< 100 nM

Values compiled from patent US20180170941A1.
